assayInfo: chemical genetic growth profiling, strain panel (AID 1159580);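 note: tested at 20 µM; growth read once vehicle control cultures reached saturation at 30 °C; 1 = growth at the plate median or of vehicle wells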
testParameters: S. cerevisiae deletion strains, growth OD, locus YJR066W, strain TOR1, stronger effect = lower value
The whole screen tested about 5,500 compounds, of which about 2,000 (36%) were called active. About 18% were inconclusive and are not listed. The list shows a part of the results.
Assign normalized growth to each entry below.
Answer with a number only.

get_value(item= COc1ccc(CC2CCC(=NOC(=O)c3ccc(C(C)(C)C)cc3)CC2)cc1 (stereo unspecified) , readout=normalized growth) returns 1.06

The reported value for `Cc1onc(-c2ccccc2)c1C(=O)Sc1ccc(C(F)(F)F)cn1` in terms of normalized growth is 0.283

`Nc1cc(C(Cl)=C(Cl)Cl)c(S(N)(=O)=O)cc1S(N)(=O)=O` yielded normalized growth of 0.95

Looking up Cc1ncc([N+](=O)[O-])n1CC(C)O (stereo unspecified) , I see its normalized growth listed as 0.883

Measured normalized growth, `COc1ccc(C(=O)CC(=O)c2ccc(C(C)(C)C)cc2)cc1` : 0.97

Entry `COc1ccc(OC)c(-c2ccn[nH]2)c1OCc1ccccc1` ; normalized growth = 0.96

###

assayInfo: chemical genetic growth profiling, strain panel (AID 1159580);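 note: tested at 20 µM; growth read once vehicle control cultures reached saturation at 30 °C; 1 = growth at the plate median or of vehicle wells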
testParameters: S. cerevisiae deletion strains, growth OD, locus YKL085W, strain MDH1, stronger effect = lower value
Screen size: about 5,500 compounds; about 2,000 (36%) were called active. Not shown: some 18% with an inconclusive outcome. Some of the results follow.
measureName: normalized growth
// keep it numeric: no unit symbol after the value

Query C[C@]12C=CC(=O)C=C1CCC1C3C[C@@H](O)[C@](O)(C(=O)CO)[C@@]3(C)C[C@H](O)[C@@]12F (some centres not stated) yields normalized growth of 0.983

For this compound ( `CCN(CC)CCOC(=O)C(c1ccccc1)c1ccccc1` ), measured normalized growth is 0.994

Lab note: measured normalized growth of COc1cc2c(cc1O)C(Cc1ccc(O)cc1)N(C)CC2 (configuration not stated) was 1.01

# normalized growth of NC(N)=NCCCC(NC(=O)C(N)Cc1ccc(O)cc1)C(=O)O (configuration not stated) = 0.988

Recorded normalized growth (compound `Nc1ccncc1` ): 0.995

# normalized growth of `Nc1cc(-c2ccncc2)c[nH]c1=O` = 0.989

# normalized growth of `COc1ccc(C(=O)CC(=O)c2ccc(C(C)(C)C)cc2)cc1` = 0.989

###

assayInfo: chemical genetic growth profiling, strain panel (AID 1159580);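 note: tested at 20 µM; growth read once vehicle control cultures reached saturation at 30 °C; 1 = growth at the plate median or of vehicle wells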
testParameters: S. cerevisiae deletion strains, growth OD, locus YJR066W, strain TOR1, stronger effect = lower value
Among all 5,500 compounds or so, about 2,000 (36%) were called active. Roughly 18% stayed inconclusive and do not appear here. Some of the results follow.
Please respond with Met when measured normalized growth is strictly beneath 0.9, and with Not met in all other cases.

Ask: Quick check: normalized growth of CN(C)CCOC(=O)C(c1ccccc1)C1(O)CCCC1 (stereo not drawn) under 0.9?
Result: Not met

Ask: State whether 0.9 exceeds normalized growth recorded for `COc1cc(CC/C(C)=N\O)ccc1OCc1ccc(Cl)c(Cl)c1` .
Result: Met

Ask: Take the molecule `N[C@@H](Cc1cc(I)c(Oc2ccc(O)c(I)c2)c(I)c1)C(=O)O` and say whether its normalized growth is less than 0.9.
Result: Met

Ask: Identify whether the molecule `COc1cc(CC/C(C)=N/O)ccc1OCc1ccc(Cl)cc1Cl` records normalized growth below 0.9.
Result: Not met

Ask: Consider `CCCC(C(=O)OCCN(CC)CC)(c1ccccc1)c1ccccc1` . Does its normalized growth lie strictly below 0.9?
Result: Not met

Ask: Hello, I'm reviewing records and need to know if normalized growth of NC(Cc1ccc(F)cc1)C(=O)O (stereo not drawn) is below 0.9. Could you check?
Result: Not met

Ask: Identify whether the molecule CC1C/C(=N/Nc2ccc(Br)cc2)c2cc(Cl)ccc2S1 (stereo not drawn) records normalized growth below 0.9.
Result: Met

Ask: Problem: For the molecule `CN(C)CCOC(=O)COc1ccc(Cl)cc1` , is normalized growth under 0.9?
Result: Not met

Ask: State whether 0.9 exceeds normalized growth recorded for CC1C/C(=N/Nc2ccc(Br)cc2)c2cc(Cl)ccc2S1(=O)=O (stereo not drawn) .
Result: Met

Ask: Determine if `O=C(O)CCCOc1ccc(Cl)cc1Cl` shows normalized growth strictly lower than 0.9.
Result: Met

Ask: Is 0.9 strictly greater than the molecule's reported normalized growth? molecule: `NC(N)=O`
Result: Not met

Ask: Below 0.9 on normalized growth? Entry `N[C@@H](Cc1cc(I)c(Oc2cc(I)c(O)c(I)c2)c(I)c1)C(=O)O`
Result: Not met
